- MEASUREMENT DESCRIPTION: HILIC, Merck SeQuant ZIC-HILIC, 25 °C, 0.25 mL/min; A: water + 16 mM ammonium formate; B: acetonitrile + 0.1% formic acid, pH 3; gradient (min/%B) 0/97 2/97 10/70 15/10 17/10 18/97 25/97
- ASSAY CONTEXT: stereoisomer not certain
Where a name gives a salt, the structure may show the parent alone.
QUANTITY KIND: LC retention time
Show the value, then the unit it is measured in.

Exercise: // returns reported LC retention time for input NC(=O)NCCCC(N)C(=O)O (configuration not stated)
Solution: 14.5 min

Exercise: // returns reported LC retention time for input CC(=O)NC(CS)C(=O)O (configuration not stated)
Solution: 3.43 min

Exercise: // returns reported LC retention time for input Cc1ccc(O)c(O)c1
Solution: 1.84 min

Exercise: // returns reported LC retention time for input O=C1CCNC(=O)N1 [DIHYDROURACIL]
Solution: 2.13 min

Exercise: // returns reported LC retention time for input NCCc1ccccc1
Solution: 10.2 min

Exercise: // returns reported LC retention time for input NC1(C(=O)O)CCCCC1
Solution: 11.7 min

Exercise: // returns reported LC retention time for input O=c1[nH]cnc2c1ncn2C1OC(COP(=O)([O-])OP(=O)([O-])O)C(O)C1O (configuration not stated) [INOSINE 5'-DIPHOSPHATE]
Solution: 15 min

Exercise: // returns reported LC retention time for input O=c1[nH]cnc2nc[nH]c12
Solution: 8.77 min

Exercise: // returns reported LC retention time for input C[N+](C)(C)CCCCC(N)C(=O)[O-] (configuration not stated)
Solution: 16.5 min

Exercise: // returns reported LC retention time for input CC(O)(CC(=O)O)C(=O)O (configuration not stated) [CITRAMALATE]
Solution: 6.53 min

Exercise: // returns reported LC retention time for input OCCNCCO
Solution: 13.1 min

Exercise: // returns reported LC retention time for input O=C(O)CCCCCC(=O)O
Solution: 2.14 min

Exercise: // returns reported LC retention time for input O=c1[nH]c(=O)c2ncn(C3OC(CO)C(O)C3O)c2[nH]1 (configuration not stated)
Solution: 10.4 min

Exercise: // returns reported LC retention time for input Cc1ncc(CO)c(CO)c1O
Solution: 10.4 min

Exercise: // returns reported LC retention time for input CC(N)(Cc1cnc[nH]1)C(=O)O (racemic) [Alpha-methyl-DL-histidine dihydrochloride]
Solution: 15.5 min

Exercise: // returns reported LC retention time for input NCCCCNCCCN
Solution: 19.5 min

Exercise: // returns reported LC retention time for input Nc1ncnc2c1ncn2C1CC(O)C(COP(=O)(O)OP(=O)(O)OP(=O)(O)O)O1 (configuration not stated) [DEOXYADENOSINE TRIPHOSPHATE]
Solution: 15.7 min

Exercise: // returns reported LC retention time for input C[n+]1cccc(C(N)=O)c1 [1-METHYLNICOTINAMIDE]
Solution: 12.8 min

Exercise: // returns reported LC retention time for input O=C(O)c1cc(O)ccc1O [2-5-DIHYDROXYBENZOATE]
Solution: 2.14 min

Exercise: // returns reported LC retention time for input O=C(O)c1cc(O)cc(O)c1 [3-5-Dihydroxybenzoic acid]
Solution: 8.46 min

Exercise: // returns reported LC retention time for input O=c1ccn(C2CC(O)C(COP(=O)(O)O)O2)c(=O)[nH]1 (configuration not stated) [DEOXYURIDINE-MONOPHOSPHATE]
Solution: 13.4 min

Exercise: // returns reported LC retention time for input O=C[O-] [FORMATE]
Solution: 2.79 min
